Catalogue of Salivary uptake readings, one per entry.
System: mice bearing PSMA-expressing LNCAP cancer xenografts
Assay Remarks: Biodistribution of 68Ga-labeled compounds
Type: in vivo
Reported Conditions: 3 h post-injection
Give the value, in units of % ID/g, as a plain number.

*Q* Please list Salivary uptake recorded for the compound Cc1ccc(CCCC(=O)NCC(=O)N[C@@H](CCCCNC(=O)CN2CCN(CC(=O)[O-])CCN(CC(=O)[O-])CCN(CC(=O)[O-])CC2)C(=O)NC[C@H]2CC[C@H](C(=O)N[C@@H](Cc3ccc4ccccc4c3)C(=O)NCCCC[C@H](NC(=O)N[C@@H](CCC(=O)O)C(=O)O)C(=O)O)CC2)cc1.[68Ga+3] [^68Ga-HTK03090]
*A* 2.15

*Q* Quote Salivary uptake reported for O=C([O-])CN1CCN(CC(=O)[O-])CCN(CC(=O)NCCCC[C@H](NC(=O)CNC(=O)CCCc2ccc(Br)cc2)C(=O)NC[C@H]2CC[C@H](C(=O)N[C@@H](Cc3ccc4ccccc4c3)C(=O)NCCCC[C@H](NC(=O)N[C@@H](CCC(=O)O)C(=O)O)C(=O)O)CC2)CCN(CC(=O)[O-])CC1.[68Ga+3] [^68Ga-HTK03058] please.
*A* 3.45

*Q* Return the recorded Salivary uptake value; entry: O=C([O-])CN1CCN(CC(=O)[O-])CCN(CC(=O)NCCCC[C@H](NC(=O)CNC(=O)CCCc2ccc([N+](=O)[O-])cc2)C(=O)NC[C@H]2CC[C@H](C(=O)N[C@@H](Cc3ccc4ccccc4c3)C(=O)NCCCC[C@H](NC(=O)N[C@@H](CCC(=O)O)C(=O)O)C(=O)O)CC2)CCN(CC(=O)[O-])CC1.[68Ga+3] [^68Ga-HTK03089]
*A* 1.45

*Q* Tell me Salivary uptake reported for O=C([O-])CN1CCN(CC(=O)[O-])CCN(CC(=O)NCCCC[C@H](NC(=O)CNC(=O)CCCc2ccccc2)C(=O)NC[C@H]2CC[C@H](C(=O)N[C@@H](Cc3ccc4ccccc4c3)C(=O)NCCCC[C@H](NC(=O)N[C@@H](CCC(=O)O)C(=O)O)C(=O)O)CC2)CCN(CC(=O)[O-])CC1.[68Ga+3] [^68Ga-HTK03056]
*A* 2.06

*Q* Identify Salivary uptake associated with the compound COc1ccc(CCCC(=O)NCC(=O)N[C@@H](CCCCNC(=O)CN2CCN(CC(=O)[O-])CCN(CC(=O)[O-])CCN(CC(=O)[O-])CC2)C(=O)NC[C@H]2CC[C@H](C(=O)N[C@@H](Cc3ccc4ccccc4c3)C(=O)NCCCC[C@H](NC(=O)N[C@@H](CCC(=O)O)C(=O)O)C(=O)O)CC2)cc1.[68Ga+3] [^68Ga-HTK03086]
*A* 1.39

*Q* Give Salivary uptake for O=C([O-])CN1CCN(CC(=O)[O-])CCN(CC(=O)NCCCC[C@H](NC(=O)CNC(=O)CCCc2ccc(I)cc2)C(=O)NC[C@H]2CC[C@H](C(=O)N[C@@H](Cc3ccc4ccccc4c3)C(=O)NCCCC[C@H](NC(=O)N[C@@H](CCC(=O)O)C(=O)O)C(=O)O)CC2)CCN(CC(=O)[O-])CC1.[68Ga+3] [^68Ga-HTK03024]
*A* 4.66

*Q* Tell us which Salivary uptake value is on record for Nc1ccc(CCCC(=O)NCC(=O)N[C@@H](CCCCNC(=O)CN2CCN(CC(=O)[O-])CCN(CC(=O)[O-])CCN(CC(=O)[O-])CC2)C(=O)NC[C@H]2CC[C@H](C(=O)N[C@@H](Cc3ccc4ccccc4c3)C(=O)NCCCC[C@H](NC(=O)N[C@@H](CCC(=O)O)C(=O)O)C(=O)O)CC2)cc1.[68Ga+3] [^68Ga-HTK03087]
*A* 0.47
